# TESTED TARGET: CYP3A4 (Homo sapiens)
# Construct: from tissue; host or cells: pooled human liver microsomes
# Sequence (P08684 whole entry): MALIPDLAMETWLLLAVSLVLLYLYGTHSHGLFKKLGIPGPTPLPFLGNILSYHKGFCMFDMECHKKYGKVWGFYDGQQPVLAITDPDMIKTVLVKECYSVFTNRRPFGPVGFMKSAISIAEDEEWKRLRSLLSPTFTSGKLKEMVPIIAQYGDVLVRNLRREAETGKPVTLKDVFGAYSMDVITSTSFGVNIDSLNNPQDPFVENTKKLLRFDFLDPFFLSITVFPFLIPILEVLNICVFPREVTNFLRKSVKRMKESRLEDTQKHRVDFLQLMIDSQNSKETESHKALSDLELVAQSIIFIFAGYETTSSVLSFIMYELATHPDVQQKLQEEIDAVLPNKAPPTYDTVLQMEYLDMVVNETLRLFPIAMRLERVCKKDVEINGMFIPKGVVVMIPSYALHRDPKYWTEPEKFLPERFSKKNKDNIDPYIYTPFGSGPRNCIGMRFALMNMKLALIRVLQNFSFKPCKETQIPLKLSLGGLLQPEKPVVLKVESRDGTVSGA
# ASSAY NOTES: CYP450 Inhibition Assay 1 (pooled human liver microsomes, midazolam)
# Assay type: in vitro ADME
# CONDITIONS: Table 3; HLM 0.05 mg/mL, midazolam 5 μM, 5 min
Assignment: determine reported IC50 for the given compounds.

For CCC1=C(Cc2ccc(C(F)(F)F)cn2)C(=O)c2c(F)ccc(F)c2C1=O the compound record lists IC50 as 3.68 µM

Data point: CC1=C(Cc2ccccn2)C(=O)c2ccccc2C1=O ; IC50 = 22.8 µM

Documented IC50 of CC1=C(Cc2ccc(C(F)(F)F)cn2)C(=O)c2ccccc2C1=O : 5.78 µM

Reported IC50 for [2H]C([2H])([2H])C1=C(Cc2ccc(C(F)(F)F)cn2)C(=O)c2cc(F)cc(F)c2C1=O was 1.49 µM

// field: IC50; key: CC1=C(Cc2ccc(C(F)(F)F)cn2)C(=O)c2c(ccc(F)c2F)C1=O ; value = 1.3 µM

Record CCC1=C(Cc2ccc(C(F)(F)F)c(C#N)n2)C(=O)c2ccc(F)cc2C1=O , field IC50: 11 µM

// sample CC1=C(Cc2ccc(C(F)(F)F)c(C#N)n2)C(=O)c2c(F)ccc(F)c2C1=O , its IC50 was 2.4 µM

Query N#Cc1nc(CC2=C(C3CC3)C(=O)c3c(F)ccc(F)c3C2=O)ccc1C(F)(F)F yields IC50 of 1.56 µM

// provenance: patent US20230002324A1
